- TEST_SYSTEM: human angiotensin 2 type 1 receptor (human)
- TEST_PROTOCOL: cell-based or functional assay
Recorded b-arrestin2 EC50, one value per entry.
Quick reminder: number only, in nM, skip the unit.

Sample answers from the record:
[
  {
    "SUBSTANCE": "SEQ ID NO: 83 (Sar-Arg-Val-Tyr-NVA-His-Pro-D-Ala-OH) (peptide)",
    "b-arrestin2 EC50 / nM": 200
  },
  {
    "SUBSTANCE": "SEQ ID NO: 32 (Me2G-Arg-Val-Tyr-Ile-His-Pro-Ala-OH) (peptide)",
    "b-arrestin2 EC50 / nM": 79
  },
  {
    "SUBSTANCE": "SEQ ID NO: 84 (Sar-Arg-Val-Tyr-OMTh-His-Pro-D-Ala-OH) (peptide)",
    "b-arrestin2 EC50 / nM": 32
  },
  {
    "SUBSTANCE": "SEQ ID NO: 64 (Glu-Arg-Val-Tyr-Phe-His-Pro-NH2) (peptide)",
    "b-arrestin2 EC50 / nM": 1200
  },
  {
    "SUBSTANCE": "SEQ ID NO: 5 (Sar-Arg-Val-Gly-Val-His-Pro-Gly-OH) (peptide)",
    "b-arrestin2 EC50 / nM": 1600
  }
]

Write down the reported b-arrestin2 EC50 of SEQ ID NO: 30 (Sar-Arg-Val-Tyr-OMTh-His-Pro-Ala-OH) (peptide) , test system: human angiotensin 2 type 1 receptor (human).
9.2

Write down the reported b-arrestin2 EC50 of SEQ ID NO: 82 (NM-D-Ala-Arg-Val-Tyr-Ile-His-Pro-D-Ala-OH) (peptide) , test system: human angiotensin 2 type 1 receptor (human).
320

Write down the reported b-arrestin2 EC50 of SEQ ID NO: 8 (Sar-Arg-Val-Tyr-Val-His-Pro-Ala-NH2) (peptide) , test system: human angiotensin 2 type 1 receptor (human).
210

Write down the reported b-arrestin2 EC50 of SEQ ID NO: 3 (Sar-Arg-Val-Ile-Val-His-Pro-Ile-OH) (peptide) , test system: human angiotensin 2 type 1 receptor (human).
450

Write down the reported b-arrestin2 EC50 of SEQ ID NO: 44 (NMAla-Arg-Val-Tyr-Ile-His-Pro-D-Ala-OH) (peptide) , test system: human angiotensin 2 type 1 receptor (human).
80

Write down the reported b-arrestin2 EC50 of SEQ ID NO: 66 (N-Me-Glu-Arg-Val-Tyr-Phe-His-Pro-NH2) (peptide) , test system: human angiotensin 2 type 1 receptor (human).
6700
